Tested on: Shigella flexneri
Test: growth AUC normalised to DMSO control (fraction of control); higher = less growth inhibition, active = hit call of the paper
Conditions: 20 µM
Where a name gives a salt, the structure may show the parent alone.
Measured growth AUC normalised to DMSO control, listed per entry for reference.

# Compound, growth AUC normalised to DMSO control
records = [
    ("C[N+](C)(C)CCCCCCCCCC[N+](C)(C)C [Decamethonium bromide]", 1.03),
    ("O=c1[nH]c2ccccc2n1C1CCN(CCCC(c2ccc(F)cc2)c2ccc(F)cc2)CC1 [Pimozide]", 1),
    ("C[N+]12CCC(CC1)C(OC(=O)C(O)(c1ccccc1)c1ccccc1)C2 (stereo not drawn) [Clidinium bromide]", 0.975),
    ("C[C@]12CC[C@H](O)C[C@H]1CC[C@@H]1[C@@H]2CC[C@]2(C)[C@@H](C3=CC(=O)OC3)CC[C@]12O", 0.981),
    ("CC(C)(C)NCC(O)c1cc(Cl)c(N)c(Cl)c1 (stereo not drawn) [Clenbuterol hydrochloride]", 0.979),
    ("CO[C@]12C[C@@H](COC(=O)c3cncc(Br)c3)CN(C)[C@@H]1Cc1cn(C)c3cccc2c13", 1),
    ("CN(C)C(=O)Oc1ccc[n+](C)c1 [Pyridostigmine iodide]", 1.03),
    ("CN(C)C(=O)Oc1cc(OC(=O)N(C)C)cc(C(O)CNC(C)(C)C)c1 (stereo not drawn) [Bambuterol hydrochloride]", 0.997),
]

FYI, the data here is from the supplement of paper PMC12350171.
